Target: antibodies against ISV in serum sample IHUS#B09032311A3
Test: ECL drug-displacement assay vs labelled SEQ ID NO:1
MEASUREMENT TYPE: ECLU confirmatory assay (ECLU)
Give bare numbers, in ECLU.

Worked cases, ECLU confirmatory assay given:
- BINDER: "SEQ ID NO: 23, Wildtype VHH (VHH) VHH: EVQLVESGGGLVQAGGSLRLSCAASGRTFNNYAMGWFRRAPGKEREFVAAITRSGVRSGVSAIYGDSVKDRFTISRDNAKNTLYLQMNSLKPEDTAVYTCAASAIGSGALRRFEYDYSGQGTQVTVSS"
  MEASUREMENT TYPE: "ECLU confirmatory assay"
  MEASURED VALUE: 1780
- BINDER: "SEQ ID NO: 26, Wildtype VHH + Q108L (VHH) VHH: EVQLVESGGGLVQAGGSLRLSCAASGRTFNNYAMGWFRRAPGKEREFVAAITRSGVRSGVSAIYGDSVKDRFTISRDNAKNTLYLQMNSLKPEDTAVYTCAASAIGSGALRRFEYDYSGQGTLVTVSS"
  MEASUREMENT TYPE: "ECLU confirmatory assay"
  MEASURED VALUE: 1530
- BINDER: "SEQ ID NO: 25, Wildtype VHH + K83R (VHH) VHH: EVQLVESGGGLVQAGGSLRLSCAASGRTFNNYAMGWFRRAPGKEREFVAAITRSGVRSGVSAIYGDSVKDRFTISRDNAKNTLYLQMNSLRPEDTAVYTCAASAIGSGALRRFEYDYSGQGTQVTVSS"
  MEASUREMENT TYPE: "ECLU confirmatory assay"
  MEASURED VALUE: 1400

Lab book: ECLU confirmatory assay of SEQ ID NO: 24, Wildtype VHH + A14P (VHH) VHH: EVQLVESGGGLVQPGGSLRLSCAASGRTFNNYAMGWFRRAPGKEREFVAAITRSGVRSGVSAIYGDSVKDRFTISRDNAKNTLYLQMNSLKPEDTAVYTCAASAIGSGALRRFEYDYSGQGTQVTVSS noted as 205
